- method: Metabolic stability in mouse plasma assessed as degradation half life at 0.01 M measured up to 360 mins
- Assay type: ADME, cell-free
Bridge positions count the residues as written; N and C are the ends. Square brackets hold non-standard residues; d marks the D form. Peptide text beside a SMILES is read from it. NMeF = CN[C@@H](Cc1ccccc1)C(=O)O; dOrn = NCCC[C@@H](N)C(=O)O
Item-by-item account of half-life at 10000 µM
Respond numerically; units are min and should not be typed.

query: Please indicate half-life at 10000 µM recorded for CN1C(=O)CNC(=O)[C@H](NC(=O)[C@@H](N)Cc2ccc(O)cc2)CC(=O)NCCCC[C@@H](C(=O)N2CCC[C@H]2C(=O)N[C@@H](CCC(N)=O)C(=O)N[C@@H](CCCNC(=N)N)C(=O)N[C@@H](Cc2ccccc2)C(N)=O)NC(=O)[C@@H]1Cc1ccccc1 (H-Y[dD]G[NMeF]KPQRF-NH2; lactam 2-5)
result: 10.8

query: Tell me half-life at 10000 µM reported for CN1C(=O)CNC(=O)[C@H](NC(=O)[C@@H](N)Cc2ccc(O)cc2)CCCCNC(=O)C[C@H](C(=O)N2CCC[C@H]2C(=O)N[C@@H](CCC(N)=O)C(=O)N[C@@H](CCCNC(=N)N)C(=O)N[C@@H](Cc2ccccc2)C(N)=O)NC(=O)[C@@H]1Cc1ccccc1 (H-Y[dK]G[NMeF][dD]PQRF-NH2; lactam 2-5)
result: 18.7

query: Entry CN1C(=O)CNC(=O)[C@H](NC(=O)[C@@H](N)Cc2ccc(O)cc2)CCCNC(=O)C[C@@H](C(=O)N2CCC[C@H]2C(=O)N[C@@H](CCC(N)=O)C(=O)N[C@@H](CCCNC(=N)N)C(=O)N[C@@H](Cc2ccccc2)C(N)=O)NC(=O)[C@@H]1Cc1ccccc1 (H-Y[dOrn]G[NMeF]DPQRF-NH2; lactam 2-5) needs its half-life at 10000 µM filled in; supply it.
result: 41.1

query: Specify measured half-life at 10000 µM for C[C@@H](NC(=O)[C@@H](N)Cc1ccc(O)cc1)C(=O)NCC(=O)N(C)[C@@H](Cc1ccccc1)C(=O)NCC(=O)N1CCC[C@H]1C(=O)N[C@@H](CCC(N)=O)C(=O)N[C@@H](CCCNC(=N)N)C(=O)N[C@@H](Cc1ccccc1)C(N)=O (H-Y[dA]G[NMeF]GPQRF-NH2) .
result: 21.8

###

- method: Cmax in Kunming mouse at 868.1 nmol/kg, po measured up to 120 mins by LC-MS/MS analysis
- Format: ADME, organism-based
- Parameters: route oral, dose 868.1 nmol/kg, time <=120
- test.conditions: in vivo
Bridge positions count the residues as written; N and C are the ends. Square brackets hold non-standard residues; d marks the D form. Peptide text beside a SMILES is read from it. NMeF = CN[C@@H](Cc1ccccc1)C(=O)O
measured.quantity: Cmax (ng/mL)
Express your answer in ng/mL, writing the number without its unit.

query: Return value of Cmax for input CN1C(=O)CNC(=O)[C@H](NC(=O)[C@@H](N)Cc2ccc(O)cc2)CCCCNC(=O)C[C@@H](C(=O)N2CCC[C@H]2C(=O)N[C@@H](CCC(N)=O)C(=O)N[C@@H](CCCNC(=N)N)C(=O)N[C@@H](Cc2ccccc2)C(N)=O)NC(=O)[C@@H]1Cc1ccccc1 (H-Y[dK]G[NMeF]DPQRF-NH2; lactam 2-5) , no commentary.
result: 215

###

- method: Clearance in Kunming mouse at 868.1 nmol/kg, iv measured up to 120 mins by LC-MS/MS analysis
- Assay type: ADME, organism-based
- test.conditions: in vivo
Bridge positions count the residues as written; N and C are the ends. Square brackets hold non-standard residues; d marks the D form. Peptide text beside a SMILES is read from it. NMeF = CN[C@@H](Cc1ccccc1)C(=O)O
measured.quantity: clearance (mL/min/kg)
Report the figure in mL/min/kg without appending any unit label.

query: # return recorded clearance for input CN1C(=O)CNC(=O)[C@H](NC(=O)[C@@H](N)Cc2ccc(O)cc2)CCCCNC(=O)C[C@@H](C(=O)N2CCC[C@H]2C(=O)N[C@@H](CCC(N)=O)C(=O)N[C@@H](CCCNC(=N)N)C(=O)N[C@@H](Cc2ccccc2)C(N)=O)NC(=O)[C@@H]1Cc1ccccc1 (H-Y[dK]G[NMeF]DPQRF-NH2; lactam 2-5)
result: 30

###

- method: Cmax in Kunming mouse at 868.1 nmol/kg, iv measured up to 120 mins by LC-MS/MS analysis
- Assay type: ADME, organism-based
- Set-up: route intravenous, dose 868.1 nmol/kg, time <=120
- test.conditions: in vivo
Bridge positions count the residues as written; N and C are the ends. Square brackets hold non-standard residues; d marks the D form. Peptide text beside a SMILES is read from it. NMeF = CN[C@@H](Cc1ccccc1)C(=O)O
measured.quantity: Cmax (ng/mL)
# value in ng/mL; strip the unit string

query: State its Cmax: CN1C(=O)CNC(=O)[C@H](NC(=O)[C@@H](N)Cc2ccc(O)cc2)CCCCNC(=O)C[C@@H](C(=O)N2CCC[C@H]2C(=O)N[C@@H](CCC(N)=O)C(=O)N[C@@H](CCCNC(=N)N)C(=O)N[C@@H](Cc2ccccc2)C(N)=O)NC(=O)[C@@H]1Cc1ccccc1 (H-Y[dK]G[NMeF]DPQRF-NH2; lactam 2-5)
result: 5070

###

Reported EC50 values are given for each entry in this list.
- target.or.test.system: Neuropeptide FF receptor 1 (Homo sapiens, UniProt Q9GZQ6)
- Sequence (Q9GZQ6 whole entry): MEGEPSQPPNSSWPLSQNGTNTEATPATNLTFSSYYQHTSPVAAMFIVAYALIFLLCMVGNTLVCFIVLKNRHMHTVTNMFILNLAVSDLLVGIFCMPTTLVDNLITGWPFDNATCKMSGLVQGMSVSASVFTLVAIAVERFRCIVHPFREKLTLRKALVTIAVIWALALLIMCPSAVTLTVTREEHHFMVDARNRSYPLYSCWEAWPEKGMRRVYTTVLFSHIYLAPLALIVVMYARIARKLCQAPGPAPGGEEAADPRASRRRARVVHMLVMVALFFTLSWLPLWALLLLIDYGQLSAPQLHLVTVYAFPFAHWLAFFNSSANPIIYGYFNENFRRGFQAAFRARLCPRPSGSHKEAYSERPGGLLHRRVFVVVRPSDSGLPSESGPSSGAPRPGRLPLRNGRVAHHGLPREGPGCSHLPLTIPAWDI
- method: Agonist activity at NPFF1R (unknown origin) expressed in HEK293-A cells assessed as inhibition of forskolin-induced cAMP accumulation preincubated for 30 mins in presence of 3-isobutyl-1-methylxanthine followed by forskolin and compound addition by competitive PKA binding assay
Bridge positions count the residues as written; N and C are the ends. Square brackets hold non-standard residues; d marks the D form. Peptide text beside a SMILES is read from it. NMeF = CN[C@@H](Cc1ccccc1)C(=O)O; dDab = NCC[C@@H](N)C(=O)O; dDap = NC[C@@H](N)C(=O)O
Write the value in µM as a bare number.

Solved entries:
query: Annotate the compound CN1C(=O)CNC(=O)[C@H](NC(=O)[C@@H](N)Cc2ccc(O)cc2)CC(=O)NCCCC[C@@H](C(=O)N2CCC[C@H]2C(=O)N[C@@H](CCC(N)=O)C(=O)N[C@@H](CCCNC(=N)N)C(=O)N[C@@H](Cc2ccccc2)C(N)=O)NC(=O)[C@@H]1Cc1ccccc1 (H-Y[dD]G[NMeF]KPQRF-NH2; lactam 2-5) with its measured EC50.
result: 0.222

query: Let me know recorded EC50 for CN1C(=O)CNC(=O)[C@H](NC(=O)[C@@H](N)Cc2ccc(O)cc2)CCCCNC(=O)C[C@@H](C(=O)N2CCC[C@H]2C(=O)N[C@@H](CCC(N)=O)C(=O)N[C@@H](CCCNC(=N)N)C(=O)N[C@@H](Cc2ccccc2)C(N)=O)NC(=O)[C@@H]1Cc1ccccc1 (H-Y[dK]G[NMeF]DPQRF-NH2; lactam 2-5) , thanks.
result: 0.58

query: Please report the measured EC50 for CN1C(=O)CNC(=O)[C@@H](NC(=O)[C@@H](N)Cc2ccc(O)cc2)CCCCNC(=O)C[C@H](C(=O)N2CCC[C@H]2C(=O)N[C@@H](CCC(N)=O)C(=O)N[C@@H](CCCNC(=N)N)C(=O)N[C@@H](Cc2ccccc2)C(N)=O)NC(=O)[C@@H]1Cc1ccccc1 (H-YKG[NMeF][dD]PQRF-NH2; lactam 2-5)
result: 0.104

query: Recall and state the measured EC50 for CN1C(=O)CNC(=O)[C@H](NC(=O)[C@@H](N)Cc2ccc(O)cc2)CNC(=O)C[C@@H](C(=O)N2CCC[C@H]2C(=O)N[C@@H](CCC(N)=O)C(=O)N[C@@H](CCCNC(=N)N)C(=O)N[C@@H](Cc2ccccc2)C(N)=O)NC(=O)[C@@H]1Cc1ccccc1 (H-Y[dDap]G[NMeF]DPQRF-NH2; lactam 2-5) .
result: 0.0901

We now examine a further compound.
query: Return the recorded EC50 value; entry: CN1C(=O)CNC(=O)[C@H](NC(=O)[C@@H](N)Cc2ccc(O)cc2)CCNC(=O)C[C@@H](C(=O)N2CCC[C@H]2C(=O)N[C@@H](CCC(N)=O)C(=O)N[C@@H](CCCNC(=N)N)C(=O)N[C@@H](Cc2ccccc2)C(N)=O)NC(=O)[C@@H]1Cc1ccccc1 (H-Y[dDab]G[NMeF]DPQRF-NH2; lactam 2-5)
result: 0.18

These measurements were taken from ChEMBL document CHEMBL5034023.
